Recorded EC50 (aequorin functional assay) values for a group of binders are listed next.
target: human melanin concentrating hormone type 2 receptor (MCH-2R) (human, UniProt Q969V1 1-340); test: cell-based or functional assay
Sequence (Q969V1 whole entry, form in doubt): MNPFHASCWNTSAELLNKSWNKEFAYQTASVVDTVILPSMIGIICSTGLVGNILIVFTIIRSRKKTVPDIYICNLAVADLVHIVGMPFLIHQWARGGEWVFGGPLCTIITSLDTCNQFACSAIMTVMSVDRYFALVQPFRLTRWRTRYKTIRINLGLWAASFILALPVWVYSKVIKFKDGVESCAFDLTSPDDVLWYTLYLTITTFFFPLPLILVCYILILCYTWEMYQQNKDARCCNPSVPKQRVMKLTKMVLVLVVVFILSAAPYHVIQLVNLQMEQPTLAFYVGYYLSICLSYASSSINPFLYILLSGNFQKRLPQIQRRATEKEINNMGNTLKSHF
Bridges are numbered along the chain shown (N, C = ends). Where no end group is shown, it is not given here.
The figure you give is taken to be in nM; do not add the unit.

binder: DFDMLRCMLGRVYRPCWQA (disulfide 7-16, also called Ala^19) [SEQ. ID. NO. 56]
unit-descriptor: nM
numeric-readout: 58.9

# evaluate next
For DFDMARCMLGRVYRPCWQV (disulfide 7-16, also called Ala^5) [SEQ. ID. NO. 45] the binder record lists EC50 (aequorin functional assay) as 17.9
